// fold change of affinity lookup, one value per entry
Molecular target: T1, Human CD3eg linker (human)
T1 construct: single-chain construct; also called recombinant human CD3
T1 chain: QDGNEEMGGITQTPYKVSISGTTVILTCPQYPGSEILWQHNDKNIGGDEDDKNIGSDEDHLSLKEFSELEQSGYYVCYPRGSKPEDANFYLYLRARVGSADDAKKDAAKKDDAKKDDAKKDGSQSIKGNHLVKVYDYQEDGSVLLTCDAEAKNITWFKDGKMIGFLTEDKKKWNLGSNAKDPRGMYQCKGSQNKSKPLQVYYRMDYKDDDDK
Assay: SPR, vs unmutated H183/L072
Respond numerically; units are fold and should not be typed.

dBBDu183H K64F/dBBDu072L (antibody, name in Kabat numbering, V domains shown) VH: QVQLVESGGGLVQPGRSLRLSCAASGFTFSNAWMHWVRQAPGKGLEWVAQIKDKGNAYAAYYAPSVFGRFTISRDDSKNSIYLQMNSLKTEDTAVYYCHYVHYASASTVLPAFGVDAWGQGTTVTVSS VL: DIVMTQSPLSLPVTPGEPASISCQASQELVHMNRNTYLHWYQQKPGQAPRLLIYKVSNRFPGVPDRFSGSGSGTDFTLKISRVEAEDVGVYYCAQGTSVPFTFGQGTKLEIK; 1.3
dBBDu183H T100bN/dBBDu072L (antibody, name in Kabat numbering, V domains shown) VH: QVQLVESGGGLVQPGRSLRLSCAASGFTFSNAWMHWVRQAPGKGLEWVAQIKDKGNAYAAYYAPSVKGRFTISRDDSKNSIYLQMNSLKTEDTAVYYCHYVHYASASNVLPAFGVDAWGQGTTVTVSS VL: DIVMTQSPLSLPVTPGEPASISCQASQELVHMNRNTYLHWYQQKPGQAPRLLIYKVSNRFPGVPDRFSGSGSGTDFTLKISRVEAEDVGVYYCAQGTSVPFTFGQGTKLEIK; 1
dBBDu183H G65F/dBBDu072L (antibody, name in Kabat numbering, V domains shown) VH: QVQLVESGGGLVQPGRSLRLSCAASGFTFSNAWMHWVRQAPGKGLEWVAQIKDKGNAYAAYYAPSVKFRFTISRDDSKNSIYLQMNSLKTEDTAVYYCHYVHYASASTVLPAFGVDAWGQGTTVTVSS VL: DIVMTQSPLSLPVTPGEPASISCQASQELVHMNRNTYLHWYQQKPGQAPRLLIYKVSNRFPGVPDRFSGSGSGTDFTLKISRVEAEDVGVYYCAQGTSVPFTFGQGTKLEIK; 0.9
dBBDu183H A100fW/dBBDu072L (antibody, name in Kabat numbering, V domains shown) VH: QVQLVESGGGLVQPGRSLRLSCAASGFTFSNAWMHWVRQAPGKGLEWVAQIKDKGNAYAAYYAPSVKGRFTISRDDSKNSIYLQMNSLKTEDTAVYYCHYVHYASASTVLPWFGVDAWGQGTTVTVSS VL: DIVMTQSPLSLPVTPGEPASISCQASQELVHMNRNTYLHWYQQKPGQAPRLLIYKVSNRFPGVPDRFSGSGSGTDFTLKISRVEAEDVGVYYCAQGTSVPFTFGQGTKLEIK; 0.7
dBBDu183H Y97T/dBBDu072L (antibody, name in Kabat numbering, V domains shown) VH: QVQLVESGGGLVQPGRSLRLSCAASGFTFSNAWMHWVRQAPGKGLEWVAQIKDKGNAYAAYYAPSVKGRFTISRDDSKNSIYLQMNSLKTEDTAVYYCHYVHTASASTVLPAFGVDAWGQGTTVTVSS VL: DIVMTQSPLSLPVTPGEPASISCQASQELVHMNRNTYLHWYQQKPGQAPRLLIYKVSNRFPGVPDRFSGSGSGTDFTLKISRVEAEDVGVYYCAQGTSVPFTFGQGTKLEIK; 0
dBBDu183H A98R/dBBDu072L (antibody, name in Kabat numbering, V domains shown) VH: QVQLVESGGGLVQPGRSLRLSCAASGFTFSNAWMHWVRQAPGKGLEWVAQIKDKGNAYAAYYAPSVKGRFTISRDDSKNSIYLQMNSLKTEDTAVYYCHYVHYRSASTVLPAFGVDAWGQGTTVTVSS VL: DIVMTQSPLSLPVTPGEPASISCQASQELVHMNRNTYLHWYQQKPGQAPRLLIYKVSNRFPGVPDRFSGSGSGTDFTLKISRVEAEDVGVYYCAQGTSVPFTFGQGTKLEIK; 2.7
dBBDu183H P61H/dBBDu072L (antibody, name in Kabat numbering, V domains shown) VH: QVQLVESGGGLVQPGRSLRLSCAASGFTFSNAWMHWVRQAPGKGLEWVAQIKDKGNAYAAYYAHSVKGRFTISRDDSKNSIYLQMNSLKTEDTAVYYCHYVHYASASTVLPAFGVDAWGQGTTVTVSS VL: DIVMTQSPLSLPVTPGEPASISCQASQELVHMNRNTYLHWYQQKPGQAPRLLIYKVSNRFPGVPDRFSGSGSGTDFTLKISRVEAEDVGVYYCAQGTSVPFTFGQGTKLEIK; 1.8
dBBDu183H S62F/dBBDu072L (antibody, name in Kabat numbering, V domains shown) VH: QVQLVESGGGLVQPGRSLRLSCAASGFTFSNAWMHWVRQAPGKGLEWVAQIKDKGNAYAAYYAPFVKGRFTISRDDSKNSIYLQMNSLKTEDTAVYYCHYVHYASASTVLPAFGVDAWGQGTTVTVSS VL: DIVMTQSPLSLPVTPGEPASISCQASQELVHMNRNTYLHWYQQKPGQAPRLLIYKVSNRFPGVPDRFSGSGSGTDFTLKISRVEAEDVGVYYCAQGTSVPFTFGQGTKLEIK; 1.9
dBBDu183H A100fR/dBBDu072L (antibody, name in Kabat numbering, V domains shown) VH: QVQLVESGGGLVQPGRSLRLSCAASGFTFSNAWMHWVRQAPGKGLEWVAQIKDKGNAYAAYYAPSVKGRFTISRDDSKNSIYLQMNSLKTEDTAVYYCHYVHYASASTVLPRFGVDAWGQGTTVTVSS VL: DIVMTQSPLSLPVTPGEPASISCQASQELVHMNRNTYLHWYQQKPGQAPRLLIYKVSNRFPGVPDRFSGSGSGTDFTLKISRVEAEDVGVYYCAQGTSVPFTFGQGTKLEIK; 1.6

# evaluate next
So for dBBDu183H V100iR/dBBDu072L (antibody, name in Kabat numbering, V domains shown) VH: QVQLVESGGGLVQPGRSLRLSCAASGFTFSNAWMHWVRQAPGKGLEWVAQIKDKGNAYAAYYAPSVKGRFTISRDDSKNSIYLQMNSLKTEDTAVYYCHYVHYASASTVLPAFGRDAWGQGTTVTVSS VL: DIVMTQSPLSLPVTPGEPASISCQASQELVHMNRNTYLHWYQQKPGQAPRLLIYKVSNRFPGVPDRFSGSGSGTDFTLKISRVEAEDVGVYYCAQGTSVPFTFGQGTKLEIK , the logged fold change of affinity turned out to be 4
